Literature survey of IC50 (system: Coagulation factor VII (Homo sapiens, UniProt P08709)).
Answer format: numeric, nM implied, no suffix.

CC(C)CC(Nc1cccc(C(=N)N)c1)C(=O)Nc1ccc(N(C)C)cc1 (stereo not shown)    21
CS(=O)(=O)c1ccccc1-c1ccc(NC(=O)C(Cc2cnc[nH]2)NC(=O)Nc2ccccc2)cc1 (stereo not shown)    2000
N=C(N)c1cccc(NC(C(=O)Nc2ccc(N3CCOCC3)cc2)c2ccccc2)c1 (stereo not shown)    22

[Q] Requested read-out: IC50. Entry: COc1cc(F)c(C(Nc2ccc(C(=N)N)cc2)c2nn(-c3ncsc3C(=O)O)c(=O)[nH]2)cc1OC (racemic)
[A] 16.5
